# System: NOMO1
# experiment: cell viability relative to DMSO control; higher = less cytotoxic
# run.parameters: HPLM + 10% dialyzed FBS; 48 h; 0.19 µM
assay.endpoint: cell viability

Sample answers from the record:
{"compound": "CO[C@H]1C[C@H]2OC[C@@]2(OC(C)=O)[C@H]3[C@H](OC(=O)C4=CC=CC=C4)[C@]5(O)C[C@H](OC(=O)[C@H](O)[C@@H](NC(=O)OC(C)(C)C)C6=CC=CC=C6)/C(=C(/[C@@H](OC)C(=O)[C@]13C)C5(C)C)C", "experimental.target": "NOMO1", "recorded.value": "19.9%"}
{"compound": "O=C(Nc1ccncc1)C(=O)c1cn(Cc2ccc(Cl)cc2)c2ccccc12", "experimental.target": "NOMO1", "recorded.value": "38.1%"}
{"compound": "Cc1ccc([S+](=O)([O-])NC(=O)NN2CC3CCCC3C2)cc1 (stereo not drawn)", "experimental.target": "NOMO1", "recorded.value": "113%"}
{"compound": "COc1ccc(CC2SC(=O)NC2=O)cc1C(=O)NCc1ccc(C(F)(F)F)cc1 (stereo not drawn)", "experimental.target": "NOMO1", "recorded.value": "85.5%"}
{"compound": "COc1cc([C@@H]2c3cc4c(cc3[C@@H](O)C3COC(=O)C32)OCO4)cc(OC)c1O (stereo partly drawn)", "experimental.target": "NOMO1", "recorded.value": "53.1%"}
{"compound": "COC1=C(CC=C(C)C)C2=C(\\C=C/C(=O)O2)C=C1", "experimental.target": "NOMO1", "recorded.value": "114%"}
{"compound": "COc1cc2nc(N3CCN(C(=O)c4ccco4)CC3)nc(N)c2cc1OC", "experimental.target": "NOMO1", "recorded.value": "105%"}

Now for a further compound.
I am curious: what cell viability value has been reported for CNCCN(C)Cc1c[nH]nc1-c1ccc(O[C@H]2C[C@H](OCCC3CCOCC3)C2)cc1 ?
156%

###

I'd be grateful if you could share measured cell viability for these entries.
# Tested on: NOMO1
# experiment: cell viability relative to DMSO control; higher = less cytotoxic
# run.parameters: HPLM + 10% dialyzed FBS; 48 h; 46.1 µM
Answers are plain numbers, in %.

# map each molecule to its cell viability
1. C=C1C(=O)O[C@@H]2[C@H]3O[C@]3(C)CC/C=C(\C)CC[C@@H]12
2. N[S+](=O)([O-])c1cc2c(cc1Cl)NCN[S+]2(=O)[O-]
3. O=C(N[C@H]1CN2CCC1CC2)c1ccc(Cl)cc1

1. 3.29
2. 102
3. 68.1

###

Assign cell viability to each entry below.
# System: P12-Ichikawa
# experiment: cell viability relative to DMSO control; higher = less cytotoxic
# run.parameters: HPLM + 10% dialyzed FBS; 48 h; 1.71 µM
Respond with a number, then the unit of measure.

Here is how some compounds turned out for cell viability.
{"compound": "O=C1CCc2cc(OCCCCc3nnnn3C3CCCCC3)ccc2N1", "cell viability": "95.6%"}
{"compound": "Cc1ccc([S+](=O)([O-])NC(=O)NN2CC3CCCC3C2)cc1 (configuration not stated)", "cell viability": "80.8%"}
{"compound": "COc1cc([C@@H]2c3cc4c(cc3[C@H](O)[C@H]3COC(=O)[C@H]23)OCO4)cc(OC)c1OC", "cell viability": "8.21%"}

Here are 4 compounds. What values of cell viability were reported for them?
1. Cc1ccc(C)c(OCCCC(C)(C)C(=O)O)c1
2. CNC(=O)c1ccccc1Sc1ccc2c(/C=C/c3ccccn3)n[nH]c2c1
3. CC(=O)[C@H]1CC[C@H]2[C@@H]3C/C=C4/C[C@@H](O)CC[C@]4(C)[C@H]3CC[C@]12C
4. CC1(C)NC(=O)N(c2ccc([N+](=O)[O-])c(C(F)(F)F)c2)C1=O

1. 102%
2. 84.5%
3. 115%
4. 87.8%

###

# Test system: SEM cells
# experiment: cell viability relative to DMSO control; higher = less cytotoxic
# run.parameters: HPLM + 10% dialyzed FBS; 48 h; 46.1 µM
Binary call on cell viability with cut-off 40%: strictly below means true (1), and equality or higher means false (0).

Solved entries:
{"molecule": "Clc1ccc(C(Cn2ccnc2)OCc2ccc(Sc3ccccc3)cc2)c(Cl)c1 (stereo not drawn)", "experimental.target": "SEM cells", "class.label": "false (0)"}
{"molecule": "O=C(N[C@H]1CN2CCC1CC2)c1ccc(Cl)cc1", "experimental.target": "SEM cells", "class.label": "false (0)"}
{"molecule": "CN1CCC(=C2c3ccccc3CCc3sccc32)CC1", "experimental.target": "SEM cells", "class.label": "false (0)"}
{"molecule": "NC(=O)[C@@H](CCC(F)(F)F)N(Cc1ccc(-c2ncon2)cc1F)[S+](=O)([O-])c1ccc(Cl)cc1", "experimental.target": "SEM cells", "class.label": "true (1)"}
{"molecule": "C[C@@H](Oc1ccc2[nH]nc(/C=C/c3cnn(CCO)c3)c2c1)c1c(Cl)cncc1Cl", "experimental.target": "SEM cells", "class.label": "true (1)"}
{"molecule": "Clc1ccc(C(Cn2ccnc2)OCc2ccsc2Cl)c(Cl)c1 (stereo not drawn)", "experimental.target": "SEM cells", "class.label": "true (1)"}

Hi there! Is cell viability for CC(CCc1ccc(O)cc1)NCCc1ccc(O)c(O)c1 (stereo not drawn) below 40%, do you know?
true (1)

# TODO verify cell viability < 40% strictly for this molecule: Oc1ccc(C2CNCCc3c2cc(O)c(O)c3Cl)cc1 (stereo not drawn)
false (0)

Please indicate whether the reported cell viability of COC1=CC2=C(C=C1CC3=C(F)C(=CC=C3)Cl)C(=O)\C(=C/N2[C@H](CO)C(C)C)C(O)=O is strictly below 40%.
true (1)

Identify whether the molecule CCOC(=O)c1c(/C(C#N)=C\N)c2ccc(Cl)c(Cl)c2n1C records cell viability below 40%.
false (0)

Does CCC1=C2CN3C(=O)\C4=C(/C=C3/C2=NC5=CC=C(O)C=C15)[C@@](O)(CC)C(=O)OC4 have cell viability strictly under 40%?
true (1)

hey, is cell viability for CC(C)N(CCCNC(=O)Nc1ccc(C(C)(C)C)cc1)C[C@H]1O[C@@H](n2cc(Br)c3c(N)ncnc32)[C@H](O)[C@@H]1O lower than 40% or not?
true (1)

Lab note: confirm whether the reported cell viability for this molecule is below 40%, equality not counting. molecule: O=P1(NCCCl)OCCCN1CCCl (stereo not drawn)
true (1)

# strict comparison: is reported cell viability < 40%? input = NNC(=O)c1ccncc1
false (0)

Is cell viability strictly under 40% for the entry COc1ccccc1OCC(O)CN1CCN(CC(=O)Nc2c(C)cccc2C)CC1 (stereo not drawn) ?
false (0)

Item CNC(=O)c1cc(Oc2ccc(NC(=O)Nc3ccc(Cl)c(C(F)(F)F)c3)c(F)c2)ccn1 : cell viability beneath 40%, strictly?
true (1)

Hello, I'm reviewing records and need to know if cell viability of Cc1ccc(C)c(OCCCC(C)(C)C(=O)O)c1 is below 40%. Could you check?
false (0)

Hello, is cell viability of the following molecule strictly smaller than 40%? Cc1n[nH]c(C)c1Cc1sc2c(c1C(=O)N1C[C@H](O)CO1)c(=O)n(C)c(=O)n2CC(C)C
false (0)

Check if cell viability falls below 40% for CC(C)(OCc1nn(Cc2ccccc2)c2ccccc12)C(=O)O .
false (0)

Determine whether this molecule shows cell viability lower than 40% (ties excluded): COc1cc([C@@H]2c3cc4c(cc3[C@@H](O[C@@H]3O[C@@H]5CO[C@@H](C)O[C@H]5[C@H](O)[C@H]3O)[C@H]3COC(=O)[C@H]23)OCO4)cc(OC)c1O
true (1)

cell viability strictly < 40% for this molecule? C=C1C(=O)O[C@@H]2[C@H]3O[C@]3(C)CC/C=C(\C)CC[C@@H]12
true (1)

Find out if reported cell viability for NC(=O)Cc1cccc(C(=O)c2ccccc2)c1N is less than 40%
false (0)

Given CNCCN(C)Cc1c[nH]nc1-c1ccc(O[C@H]2C[C@H](OCCC3CCOCC3)C2)cc1 , is recorded cell viability strictly lower than 40%?
true (1)

Would you kindly verify if cell viability of COC1=CC=CC(=C1/C2=N/CC3=C(N=C(NC4=CC(=C(C=C4)C(O)=O)OC)N=C3)C5=CC=C(Cl)C=C25)F is strictly less than 40%?
true (1)

###

# Test system: SEM cells
# experiment: cell viability relative to DMSO control; higher = less cytotoxic
# run.parameters: HPLM + 10% dialyzed FBS; 48 h; 0.00702 µM
assay.endpoint: cell viability (%)
Numbers only, in %.

Below: 4 molecules and their reported cell viability.
{"molecule": "CCCC[N+]1(C)[C@@H]2CC(OC(=O)[C@H](CO)c3ccccc3)C[C@H]1[C@@H]1O[C@@H]12 (stereo not given in full)", "experimental.target": "SEM cells", "cell viability / %": 120}
{"molecule": "NC(=O)[C@@H](CCC(F)(F)F)N(Cc1ccc(-c2ncon2)cc1F)[S+](=O)([O-])c1ccc(Cl)cc1", "experimental.target": "SEM cells", "cell viability / %": 102}
{"molecule": "CCN(CC)CCNC(=O)c1ccc2nc(-c3ccccc3)c(-c3ccc(CN4CCC(n5c(=O)[nH]c6ccccc65)CC4)cc3)nc2c1", "experimental.target": "SEM cells", "cell viability / %": 120}
{"molecule": "Cc1ccc(Nc2nccc(N(C)c3ccc4c(C)n(C)nc4c3)n2)cc1[S+](N)(=O)[O-]", "experimental.target": "SEM cells", "cell viability / %": 88}

Any idea what cell viability was measured for Cc1n[nH]c2ccc(-c3cncc(OC[C@@H](N)Cc4c[nH]c5ccccc45)c3)cc12 ?
89.8
